Recorded values, source patent US20100063046A1.

Target: nucleolin (Homo sapiens, UniProt P19338)
Construct: without the N-terminal acidic stretches domain
Sequence (P19338 284-710 limits assumed): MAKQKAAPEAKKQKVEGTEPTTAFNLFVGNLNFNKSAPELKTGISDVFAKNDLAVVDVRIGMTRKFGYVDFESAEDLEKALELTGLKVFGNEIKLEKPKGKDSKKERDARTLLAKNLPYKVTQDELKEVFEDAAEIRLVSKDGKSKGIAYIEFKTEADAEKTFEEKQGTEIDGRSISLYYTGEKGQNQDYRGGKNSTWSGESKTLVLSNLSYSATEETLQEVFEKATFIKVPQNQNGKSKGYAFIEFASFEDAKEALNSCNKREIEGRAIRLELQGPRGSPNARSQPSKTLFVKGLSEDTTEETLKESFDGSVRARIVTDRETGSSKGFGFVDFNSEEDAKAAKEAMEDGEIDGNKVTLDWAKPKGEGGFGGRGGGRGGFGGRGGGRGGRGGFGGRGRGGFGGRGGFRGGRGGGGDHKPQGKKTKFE
Assay: Nucleolin/nucleic acid ligand interaction assay (gel retardation)
Assay type: binding
Set-up: key: A “+” represents the weakest nucleolin affinity; a “++++” represents the strongest nucleolin affinity
Conditions: relative affinity of each nucleic acid ligand for recombinant nucleolin (MBP fusion, ~250 nM); 32P-labeled ligand; 6% DNA retardation gel
Source text: The following assays can be used to assess the effects of compounds on interactions between nucleolin and nucleic acid ligands capable of forming quadruplex (QP) and hairpin (HP) secondary structures. Nucleic acid ligands tested were a cMyc QP DNA having nucleotide sequence 5′-[…]-3′ and a HP pre-rRNA region to which nucleolin binds, having the sequence 5′-[…]-3′. […]
Result type: Affinity for Nucleolin

As a guide, the following entries are already answered.
7733T: DNA oligonucleotide from human rDNA template strand, GGGAGGGGCACGGGCCGGGGGCGGGACGGG (DNA, backbone and methylation of C not given here) [Example 7733T]: +
8511NT: DNA oligonucleotide from human rDNA non-template strand, GGGGGTGGGCGGGCGGGGCCGGGGGTGGG (DNA, backbone and methylation of C not given here) [Example 8511NT]: ++++
6183NT: DNA oligonucleotide from human rDNA non-template strand, GGGTCGGGGGCGGTGGTGGGCCCGCGGGGG (DNA, backbone and methylation of C not given here) [Example 6183NT]: +
8749NT: DNA oligonucleotide from human rDNA non-template strand, GGGAGGGCGCGCGGGTCGGGG (chemistry not given here) [Example 8749NT]: +

Tell me the measured Affinity for Nucleolin of 11028NT: DNA oligonucleotide from human rDNA non-template strand, GGGGCGCGGCGGGGGGAGAAGGGTCGGGGCGGCAGGGG (DNA, backbone and methylation of C not given here) [Example 11028NT] , please. +
